Assay: Metabolic stability in human plasma at 1 micromol/L measured upto 24 hrs by LC-MS/MS analysis
Assay type: ADME, cell-free
Conditions: dose 1 µmol/L
readout: t1/2 at 24 h, 1 µM

1) Nc1ncnn2c([C@@H]3O[C@H](CNS(=O)(=O)c4ccc5ccccc5c4)[C@@H](O)[C@H]3O)ccc12 | > 24 h

Problem: Please look up its t1/2 at 24 h, 1 µM: Nc1ncnc2c1ncn2[C@@H]1O[C@H](CNS(=O)(=O)c2ccc3ccccc3c2)[C@@H](O)[C@H]1O
Result: > 24 h

----------
The following compounds are listed with their measured t1/2 at 24 h, 1 µM values.
Assay: Metabolic stability in CD-1 mouse plasma at 1 micromol/L measured upto 24 hrs by LC-MS/MS analysis
Type: ADME, cell-free
Details: dose 1 µmol/L

1) Nc1ncnc2c1ncn2[C@@H]1O[C@H](CNS(=O)(=O)c2ccc3ccccc3c2)[C@@H](O)[C@H]1O | > 24 h

Problem: What measured t1/2 at 24 h, 1 µM goes with Nc1ncnn2c([C@@H]3O[C@H](CNS(=O)(=O)c4ccc5ccccc5c4)[C@@H](O)[C@H]3O)ccc12 ?
Result: > 24 h
